Origin of measurements: patent US20110124888A1

Target: beta-amyloid 42 (Aβ42) (Homo sapiens, UniProt P05067)
Construct: Beta-amyloid 42 (Aβ42) was dissolved in dimethylsulfoxide (DMSO)
Sequence (P05067 672-713 limits assumed): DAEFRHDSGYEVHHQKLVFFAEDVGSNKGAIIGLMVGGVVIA
Assay: Inhibitory effect on the formation of beta-amyloid fibrils in vitro (ThT fluorescence assay)
Type: biochemical
Details: 10 μM compound; Aβ42 25 μM; experiment of Table 2; read-out: % Inhibition (10 μM)
Experimental: In order to investigate the inhibitory effect on the formation of beta-amyloid fibrils, the inventive compounds were examined as follows: Beta-amyloid 42 (Aβ42) was dissolved in dimethylsulfoxide (DMSO) to form a 250 mM Aβ42 stock solution. […] 45 μL of PBS (phosphate buffer saline, pH 7.4) was added to each of a 96 well fluorescence microplate (white, F-bottom). […] A (control group): fluorescence intensity in a group treated with PBS solution, Aβ42, and DMSO […]
quantityName: inhibition at 10 µM
Answer format reminder: number followed by unit.

Previously resolved entries follow.
COc1ccc2oc(C=Cc3ccc(OC)c(OC)c3)cc2c1; 81.1%
COc1ccc(C=Cc2cc3cc(C)ccc3o2)cc1; 69.7%

// inhibition at 10 µM value for `COc1ccc(C=Cc2cc3cc(Cl)ccc3o2)cc1` : 51.8%
